tested on: ACHN renal; assay: NCI tumour cell line growth inhibition, 48 h
Label Fulfilled when TGI is at or above 30 µM; anything below gets Not fulfilled.

c1ccc(SC(CCCCOC2CCCCO2)Sc2ccccc2)cc1 (stereo not given) :: Fulfilled

Decide: TGI of `Clc1ccc(-c2nnc(C34CC5CC(CC(C5)C3)C4)o2)cc1` >= 30 µM? Fulfilled

Assess whether reported TGI for Cc1cccc2c1C(=O)OC2(C)c1cccc2ccccc12 (stereo not given) sits at 30 µM or higher. Fulfilled

----------
tested on: SN12C renal; experiment: NCI tumour cell line growth inhibition, 48 h
Measured Quantity: TGI

Clc1ccc(-c2nc3ccc(C45CC6CC(CC(C6)C4)C5)cc3[nH]2)cc1 :: > 100 µM
CC(=O)c1cccc(NC(=O)C(=O)C(C(=O)c2ccccc2F)C2OC(=O)c3ccccc32)c1 (stereo not given) :: > 100 µM
CN(C)/C=C/c1nnnn1-c1ccc(I)cc1 :: > 100 µM
COc1cc(/C=C/C(=O)c2c(C)n([O-])c3ccc(Cl)cc3[n+]2=O)cc(OC)c1OC :: > 100 µM

Hello, please tell me recorded TGI for this one: `OC(C/C(=N\N=C(/CC(O)(C(F)(F)F)C(F)(F)F)c1ccccc1)c1ccccc1)(C(F)(F)F)C(F)(F)F` > 10 µM

Return the recorded TGI value; entry: C/C(=C\CC[C@]1(C)OC(C)(C)OC1CC/C(C)=C/CO[Si](c1ccccc1)(c1ccccc1)C(C)(C)C)CC/C=C/CO[Si](C)(C)C(C)(C)C (stereo not given in full) > 100 µM

Provide only the value of recorded TGI for CCCCCCCCCC1CC(=O)NCC(=O)NC(C(C)C)C(=O)NC(CC(C)C)C(=O)NC(C)C(=O)NC(C(C)C)C(=O)O1 (stereo not given) 80.2 µM

Give TGI for `CN(C)CCCNc1ccc2nnn3c4ccc(OC(=O)c5ccc([N+](=O)[O-])cc5)cc4c(=O)c1c23` 19.6 µM

Identify TGI associated with the molecule `N=C(N)c1ccc(-c2ccc(-c3cccs3)s2)nc1` 5.38 µM

Name the recorded TGI of the molecule listed here: CC1=NN(C(=O)c2ccccc2O)C(c2ccccc2Cl)C1C(=O)Nc1ccccc1 (stereo not given) > 44.8 µM
